measure: O2 permeability (Barrer)
// return numeric value only (unit: Barrer, not printed)

The following molecules have reported results that may help.
molecule	O2 permeability, Barrer
*c1ccc(Oc2ccc(Oc3ccc(Oc4ccc(N5C(=O)c6ccc(-c7ccc8c(c7)C(=O)N(*)C8=O)cc6C5=O)cc4)cc3)cc2)cc1 (repeat unit)	0.256
*Oc1ccc(S(=O)(=O)c2ccc(Oc3ccc(C(C)(C)c4ccc(*)cc4)cc3CN)cc2)cc1 (repeat unit)	0.7
*/C=C/C1CCC(*)C1 (repeat unit)	2.8
*O[Si](*)(C)CCCCCC (repeat unit)	236
*Nc1ccc(C(=O)c2ccc(NC(=O)c3cc(C(*)=O)cc(C(C)(C)C)c3)cc2)cc1 (repeat unit)	1.16

Ask: # O2 permeability lookup, item *Oc1c(C)cc(*)c(C(=O)c2ccccc2)c1C (repeat unit)
Reply: 6

Ask: Same for *C(C)=C(*)CCCCC (repeat unit)
Reply: 57

Ask: Same for *Oc1ccc(C(C)(C)c2ccc(Oc3c(F)c(F)c(COC(C4CCCC(C(OCc5c(F)c(F)c(*)c(F)c5F)(C(F)(F)F)C(F)(F)F)C4)(C(F)(F)F)C(F)(F)F)c(F)c3F)cc2)cc1 (repeat unit)
Reply: 2.1

###

# label = Y if CH4 permeability >= 0.6 Barrer else N

Below are worked cases with known answers.
molecule	assigned_label
*CC(*)C(=O)OCCCCCCCCCC (repeat unit)	Y
*Oc1c(C)cc(C(c2cc(C)c(OC(*)=O)c(C)c2)(C(F)(F)F)C(F)(F)F)cc1C (repeat unit)	Y
*c1ccc(Oc2ccc3ccccc3c2-c2c(Oc3ccc(N4C(=O)c5ccc(C(c6ccc7c(c6)C(=O)N(*)C7=O)(C(F)(F)F)C(F)(F)F)cc5C4=O)cc3)ccc3ccccc23)cc1 (repeat unit)	N
*c1ccc(Oc2ccc(C3(c4ccc(Oc5ccc(N6C(=O)c7ccc(C(c8ccc9c(c8)C(=O)N(*)C9=O)(C(F)(F)F)C(F)(F)F)cc7C6=O)c(C)c5)cc4)OC(=O)c4ccccc43)cc2)cc1C (repeat unit)	N

Ask: Please check the record *c1ccc(Oc2ccc(N3C(=O)c4ccc(-c5ccc6c(c5)C(=O)N(*)C6=O)cc4C3=O)cc2)cc1 (repeat unit) and state if its CH4 permeability is at or above 0.6 Barrer.
Reply: N

Ask: Same for *c1ccc(Oc2ccc(N3C(=O)c4cc(Oc5ccccc5)c(-c5cc6c(cc5Oc5ccccc5)C(=O)N(*)C6=O)cc4C3=O)cc2)cc1 (repeat unit)
Reply: Y

Ask: Same for *Oc1c(C)cc(C(C)(C)c2cc(C)c(OC(=O)c3cc(C(*)=O)cc(C(C)(C)C)c3)c(C)c2)cc1C (repeat unit)
Reply: Y

###

measure: O2 permeability (Barrer)
// return numeric value only (unit: Barrer, not printed)

The following compounds have reported results that may help.
compound	measure	result_unit	val
*Oc1ccc(C(c2ccc(Oc3ccc(C(=O)c4ccc(C(C)(C)c5ccc(C(=O)c6ccc(*)cc6)cc5)cc4)cc3)cc2)(C(F)(F)F)C(F)(F)F)cc1 (repeat unit)	O2 permeability	Barrer	2.4
*OC(=O)c1ccc(C(=O)Oc2ccc(C3(c4ccc(O*)cc4)OC(=O)c4ccccc43)cc2)cc1 (repeat unit)	O2 permeability	Barrer	2.15
*C(=C(*)c1ccc2c(c1)C(C)(C)CC2(C)C)c1ccc(Cl)cc1 (repeat unit)	O2 permeability	Barrer	11700
*O[Si](C)(C)c1ccc([Si](*)(C)C)cc1 (repeat unit)	O2 permeability	Barrer	11

Ask: # O2 permeability lookup, item *c1cc2c(cc1C)-c1cc(C)c(N3C(=O)c4ccc(C(c5ccc6c(c5)C(=O)N(*)C6=O)(C(F)(F)F)C(F)(F)F)cc4C3=O)cc1S2(=O)=O (repeat unit)
Reply: 16.5

Ask: Same for *c1ccc(C2(c3ccc(*)cc3)c3ccccc3-c3ccccc32)cc1 (repeat unit)
Reply: 6.8

Ask: Same for *c1ccc(Oc2ccc(C(C)(C)c3ccc(Oc4ccc(N5C(=O)c6ccc(C(=O)c7ccc8c(c7)C(=O)N(*)C8=O)cc6C5=O)cc4)cc3)cc2)cc1 (repeat unit)
Reply: 0.54

###

Below, each entry is listed alongside its reported H2 permeability.
// return numeric value only (unit: Barrer, not printed)

The following compounds have reported results that may help.
compound	val
*c1ccc2c(c1)nc1n2C(=O)c2ccc(C(=O)Oc3ccc(C(c4ccc(OC(=O)c5ccc6c(c5)C(=O)n5c-6nc6ccc(*)cc65)cc4)(C(F)(F)F)C(F)(F)F)cc3)cc2-1 (repeat unit)	13.3
*/C=C/C1CCC(*)C1 (repeat unit)	21
*Oc1ccc(-c2c(-c3ccccc3)c(-c3ccccc3)c(-c3ccc4c(c3)Oc3c(C#N)c(*)c(*)c(C#N)c3O4)c(-c3ccccc3)c2-c2ccccc2)cc1O* (repeat unit)	1000
*Oc1ccc(C(c2ccc(Oc3ccc(C(=O)c4ccc(C(C)(C)c5ccc(C(=O)c6ccc(*)cc6)cc5)cc4)cc3)cc2)(C(F)(F)F)C(F)(F)F)cc1 (repeat unit)	22.8
*c1c(C)cc2c(c1C)C1c3ccccc3C2c2cc(C)c(-n3c(=O)c4cc5oc6cc7c(cc6oc5cc4c3=O)C3(C(C)C)c4ccccc4C7(C(C)C)c4cc5oc6cc7c(=O)n(*)c(=O)c7cc6oc5cc43)c(C)c21 (repeat unit)	4140
*c1cc2c(cc1O)C1(CC2(C)C)CC(C)(C)c2cc(N3C(=O)C4C(C3=O)C3(Br)C(Br)=C(Br)C4(Br)C4C(=O)N(*)C(=O)C43)c(O)cc21 (repeat unit)	274
*c1ccc(-c2nc3cc(-c4ccc5[nH]c(*)nc5c4)ccc3[nH]2)cc1 (repeat unit)	0.16
*Oc1cc(C)c(C2(c3cc(C(C)C)c(Oc4ccc(S(=O)(=O)c5ccc(*)cc5)cc4)cc3C)OC(=O)c3ccccc32)cc1C(C)C (repeat unit)	30.6

Ask: # H2 permeability lookup, item *c1c(C)cc(C)c(N2C(=O)c3ccc(-c4ccc5c(c4)C(=O)N(*)C5=O)cc3C2=O)c1C (repeat unit)
Reply: 210

Ask: Same for *Oc1ccc(Oc2cccc(*)c2C#N)c(-c2cc(C)cc(C)c2)c1 (repeat unit)
Reply: 9.6

Ask: Same for *c1ccc2c3c(ccc2c1)OC1CC3c2c(ccc3cc(N4C(=O)c5ccc(C(c6ccc7c(c6)C(=O)N(*)C7=O)(C(F)(F)F)C(F)(F)F)cc5C4=O)ccc23)O1 (repeat unit)
Reply: 60.2

Ask: Same for *c1cccc(Oc2cccc(N3C(=O)c4ccc(C(c5ccc6c(c5)C(=O)N(*)C6=O)(C(F)(F)F)C(F)(F)F)cc4C3=O)c2)c1 (repeat unit)
Reply: 14

###

# label = rule met if O2 permeability >= 0.5 Barrer else rule not met

Below are worked cases with known answers.
compound	assigned_label
*CC[Si](C)(C)c1ccc([Si](*)(C)C)cc1 (repeat unit)	rule met
*C(=C(*)c1ccc2c(c1)CCC2)c1ccccc1 (repeat unit)	rule met
*c1cccc(Oc2cccc(-n3c(=O)c4cc5c(=O)n(*)c(=O)c5cc4c3=O)c2)c1 (repeat unit)	rule not met
*CC(*)(C)c1ccccc1 (repeat unit)	rule met
*CCCCO* (repeat unit)	rule met

Could you now look at the following compound, please?
Ask: Please check the record *C(=C(*)c1ccc(S(=O)(=O)O)cc1)c1ccc(S(=O)(=O)O)cc1 (repeat unit) and state if its O2 permeability is at or above 0.5 Barrer.
Reply: rule met

###

measure: log10 CH4 permeability (log10 of the value in Barrer)
Log scale reminder: CH4 permeability in Barrer, then log10 taken.

molecule	measure	val
*c1ccc(N(c2ccc(N3C(=O)c4ccc(C(c5ccc6c(c5)C(=O)N(*)C6=O)(C(F)(F)F)C(F)(F)F)cc4C3=O)cc2)c2ccc(N(c3ccccc3)c3ccccc3)cc2)cc1 (repeat unit)	log10 CH4 permeability	0.09
*Oc1c(Br)cc(C(c2cc(Br)c(OC(=O)c3cccc(C(*)=O)c3)c(Br)c2)(C(F)(F)F)C(F)(F)F)cc1Br (repeat unit)	log10 CH4 permeability	-0.22
*O[Si](*)(C)C (repeat unit)	log10 CH4 permeability	3.13

Ask: # log10 CH4 permeability lookup, item *Oc1ccc(C(C)(C)c2ccc(OC(=O)c3cc(C(*)=O)cc(C(C)(C)C)c3)cc2)cc1 (repeat unit)
Reply: 0.16

Ask: Same for *Oc1ccc(C(c2ccc(OC(=O)c3ccc(C(*)=O)cc3)cc2)(C(F)(F)F)C(F)(F)F)cc1 (repeat unit)
Reply: 0.44

Ask: Same for *c1c(C)c(C)c(N2C(=O)c3ccc(C(c4ccc5c(c4)C(=O)N(*)C5=O)(C(F)(F)F)C(F)(F)F)cc3C2=O)c(C)c1C (repeat unit)
Reply: 1.66

Ask: Same for *C(=C(*)c1cccc(O[Si](C)(C)C(C)(C)C)c1)c1ccc([Si](C)(C)C)cc1 (repeat unit)
Reply: 3.04

Ask: Same for *Oc1c(C)cc(*)c(C(=O)c2ccc([N+](=O)[O-])cc2)c1C (repeat unit)
Reply: -0.12

###

Below, each entry is listed alongside its reported N2 permeability.
Show the value, then the unit it is measured in.

molecule	val
*CCC(F)(F)C(*)(F)F (repeat unit)	0.182 Barrer
*c1ccc(-c2ccc(N3C(=O)c4ccc([Si](C)(C)c5ccc6c(c5)C(=O)N(*)C6=O)cc4C3=O)cc2)cc1 (repeat unit)	0.109 Barrer
*CC(*)OC1C2CC3CC(C2)CC1C3 (repeat unit)	1.69 Barrer
*C(=C(*)c1ccc([Si](C)(C)CCCCCCCC)cc1)c1ccc(CCCC)cc1 (repeat unit)	7.9 Barrer
*Oc1ccc(Oc2cccc(*)c2C#N)c(-c2cc(C(F)(F)F)cc(C(F)(F)F)c2)c1 (repeat unit)	1.12 Barrer
*Oc1ccc(C(C)(C)c2ccc(OC(=O)c3ccc(C(=O)Oc4cc(-c5cc(*)cc6ccccc56)c5ccccc5c4)cc3)cc2)cc1 (repeat unit)	0.364 Barrer
*[Si](C)(C)c1ccc([Si](*)(C)C)cc1 (repeat unit)	3.39 Barrer
*Oc1cc2c(cc1O*)C1(CC2(C)C)CC(C)(C)c2cc3c(cc21)Oc1cc2nc4cc5c(cc4nc2cc1O3)C(C)(C)CC51CC(C)(C)c2cc3nc4cc(*)c(*)cc4nc3cc21 (repeat unit)	42 Barrer

Ask: # N2 permeability lookup, item *c1c(C)cc(C)c(-n2c(=O)c3cc4c(=O)n(*)c(=O)c4cc3c2=O)c1C (repeat unit)
Reply: 8.44 Barrer

Ask: Same for *C(=C(*)c1ccc2c(c1)C(C)(C)c1cc([Si](C)(C)C)ccc1-2)c1ccccc1 (repeat unit)
Reply: 3400 Barrer

Ask: Same for *CC(*)c1ccc(Cl)cc1 (repeat unit)
Reply: 0.23 Barrer
